test system: CAKI-1 renal; experiment: NCI tumour cell line growth inhibition, 48 h
Think of 10 µM as a floor: if TGI stands on it or above, it is Criterion met; beneath it, Criterion not met.

1) CCOC(=O)c1cc([N+](=O)[O-])c(Sc2ncnc3nc[nH]c23)c([N+](=O)[O-])c1; Criterion met
2) CC(=O)N[C@@H](Cc1ccc(OP(=O)(O)O)cc1)C(=O)N[C@H]1CCC(=O)N2CCC[C@@H](C(=O)NC3CCc4ccccc43)N2C1=O (stereo partly drawn); Criterion met
3) CC[C@@]1(O)C(=O)OCc2c1cc1n(c2=O)Cc2c-1nc1cc(F)c(C)c3c1c2[C@@H](NC(=O)CO)CC3; Criterion not met
4) O=C(/C=C/c1cccc(Br)c1)N1CCN(CCOC(c2ccccc2)c2ccccc2)CC1; Criterion met
5) Cn1cnc(C(=N)[Se])c1N; Criterion met
6) CC[As](CC)SCC1OC(OC(C)=O)C(OC(C)=O)C(OC(C)=O)C1OC(C)=O (stereo not drawn); Criterion met
7) CCOC(=O)C(=O)C(C#N)c1ccc(Cl)cc1 (stereo not drawn); Criterion met
8) CCN(/N=C1\CC2C=CCN(C2)C(=O)Cc2c1[nH]c1ccccc21)S(=O)(=O)c1ccc(C)cc1 (stereo not drawn); Criterion met

Data request: Kindly determine if TGI recorded for `CN1CCc2c(sc3ncn(Nc4ccc(F)cc4)c(=N)c23)C1` is above or exactly 10 µM.
Data returned: Criterion met

Data request: Kindly determine if TGI recorded for CC(C)C1=CC2=C(C(=O)C1=O)C13CCCC(C)(C)C1CC2OC3=O (stereo not drawn) is above or exactly 10 µM.
Data returned: Criterion met

Data request: Kindly determine if TGI recorded for `CN(C)CCCCNc1ccc(NCCCCN(C)C)c2c1C(=O)c1c(O)ccc(O)c1C2=O` is above or exactly 10 µM.
Data returned: Criterion met

Data request: Kindly determine if TGI recorded for C=C(C)CCC(O)[C@](C)(O)[C@H]1[C@H](O)C[C@@]2(C)[C@@H]3CCc4c(cc(OC5OC(CO)C(O)C(O)C5O)c(O)c4C)C3(C)C(=O)C[C@]12C (stereo partly drawn) is above or exactly 10 µM.
Data returned: Criterion met

Data request: Kindly determine if TGI recorded for `O=C(CCN1CCCN(c2cnc3ccccc3n2)CC1)c1csc2ccccc12` is above or exactly 10 µM.
Data returned: Criterion met

Data request: Kindly determine if TGI recorded for CCN(CC)CC(O)c1cc(-c2ccc(Cl)cc2)nc2c(C)c(Cl)ccc12 (stereo not drawn) is above or exactly 10 µM.
Data returned: Criterion not met

Data request: Kindly determine if TGI recorded for `COc1ccc(/C=C\c2cc(OC)c(OC)c(OC)c2)c(NS(=O)(=O)c2ccc(F)cc2)c1O` is above or exactly 10 µM.
Data returned: Criterion met

Data request: Kindly determine if TGI recorded for `Cc1cc(N=Cc2c(CO)cnc(C)c2O)c(N=Cc2c(CO)cnc(C)c2O)cc1C` is above or exactly 10 µM.
Data returned: Criterion met

Data request: Kindly determine if TGI recorded for `N#C/C(=C\c1ccc[nH]1)C(=O)c1ccccc1` is above or exactly 10 µM.
Data returned: Criterion met

Data request: Kindly determine if TGI recorded for `C[C@]12CC[C@H]3[C@@H](CC[C@]4(O)C[C@@H](O[C@@H]5O[C@H](CO)[C@@H](O[C@@H]6OC[C@@H](O)[C@H](O)[C@H]6O)[C@H](O)[C@H]5O)CC[C@]34C=O)[C@@]1(O)CC[C@@H]2C1=CC(=O)OC1` is above or exactly 10 µM.
Data returned: Criterion not met

====

system: RPMI-8226 leukemia; experiment: NCI tumour cell line growth inhibition, 48 h; in the data active = GI50 below about 0.43 µM; inactive = the rest
The reply should name one outcome from true (1) (active), false (0) (inactive)

Here's what some known entries look like.
1) CC[C@@]1(O)C(=O)OCc2c1cc1n(c2=O)Cc2c-1nc1cc(F)c(C)c3c1c2[C@@H](NC(=O)CO)CC3; true (1)
2) COc1cc(N(CCCl)CCCl)ccc1/C=N\NC(=O)c1cccnc1; false (0)
3) Nc1n[nH]c2ccc([C@@H]3Nc4ccc5cn[nH]c5c4[C@H]4C5CCC(C5)[C@@H]34)cc12 (stereo partly drawn); true (1)
4) CCC(C)C1NC(=O)C(NC(=O)C(CC(C)C)N(C)C(=O)[C@@H]2CC(O)CN2C(=O)[C@H](C)O)C(C)OC(=O)[C@H](Cc2ccc(OC)cc2)N(C)C(=O)[C@@H]2CCCN2C(=O)[C@H](CC(C)C)NC(=O)C(C)C(=O)[C@H](C(C)C)OC(=O)CC1O (stereo partly drawn); true (1)
5) COCCn1c2c([n+](Cc3cnccn3)c1C)C(=O)c1ccccc1C2=O; true (1)
6) C=CC(=O)N1CCC[C@@H](n2nc(-c3ccc(Oc4ccccc4)cc3)c3c(N)ncnc32)C1; false (0)
7) [CH3][Hg]/[N]=C(/N)NC#N; false (0)

# next compound below
Data request: For this compound, state the assay outcome: `COC(=O)c1c2c(c(C)[n+]([O-])c1C)C(=O)C(NCc1ccc(O)cc1)=CC2=O`
Data returned: false (0)

====

tested on: SNB-19 CNS; experiment: NCI tumour cell line growth inhibition, 48 h
Below, each entry is listed alongside its reported TGI.
Expressed in µM, but write only the number.

Record excerpt, results attached:
1) CCCCCCCCCCCCCCCCCCOc1ccccc1COP(=O)(O)OOCC[N+](C)(C)C; 7.76
2) Cc1ccccc1-n1c(CCl)nc2ccc(Br)cc2c1=O; 77.1

Data request: Please report TGI for the following compound: `C[C@@H]1CC[C@@]2(C)[C@H](C)/C(=C\COC(=O)/C=C/c3ccc(O)c(O)c3)CC[C@@]12C`
Data returned: 27.8

====

test system: SN12C renal; test: NCI tumour cell line growth inhibition, 48 h
Below, each entry is listed alongside its reported GI50.

Record excerpt, results attached:
1) CO/C(=C1/NC(=O)C(Cc2ccc(O)c(Br)c2)N(C)C(=O)C(C)NC(=O)CCC/C=C(\C)CCC(C)OC1=O)c1ccccc1 (centres undefined); 0.0695 µM
2) COc1ccc(/C=C/C(=O)/C=C(O)/C=C/c2ccc(OC)c(OC)c2)cc1OC; 3.5 µM
3) O=C(CN1CCN(C(=O)c2ccco2)CC1)Nc1ccc(Cl)cc1C(=O)c1ccccc1Cl; 14.6 µM

Pending compound:
Data request: Please report GI50 for the following compound: Nc1n[nH]c2ccc([C@@H]3Nc4ccc5cn[nH]c5c4[C@H]4C5CCC(C5)[C@@H]34)cc12 (some centres undefined)
Data returned: 0.747 µM

====

test system: SN12C renal; assay: NCI tumour cell line growth inhibition, 48 h
Below, each entry is listed alongside its reported TGI.
Expressed in µM, but write only the number.

Record excerpt, results attached:
1) CC(=O)Nc1ccc(C2=N/C(=C\c3ccc(Cl)cc3)C(=O)O2)cc1; 61.5
2) COc1cc(N2CCC(N)CC2)ccc1Nc1ncc(Cl)c(-c2c[nH]c3ccccc23)n1; 3.76
3) Cc1cc(=O)oc2c(C)c3oc(CBr)cc3cc12; 42.2

Pending molecule:
Data request: Supply TGI measured with SN12C renal for `C#CCNC(=O)CC[C@@H](C)[C@H]1CC[C@H]2[C@@H]3CC[C@@H]4CC(=O)CC[C@]4(C)[C@H]3CC[C@]12C` .
Data returned: 32.1

====

tested on: EKVX NSCLC; assay: NCI tumour cell line growth inhibition, 48 h; in the data active = GI50 below about 0.43 µM; inactive = the rest
The reply should name one outcome from active, inactive

Here's what some known entries look like.
1) C=CC(=O)N1CCC[C@@H](n2nc(-c3ccc(Oc4ccccc4)cc3)c3c(N)ncnc32)C1; active
2) C[C@]12CC[C@@H]3c4ccc(OC(=O)N(CCCl)CCCl)cc4CC[C@H]3[C@@H]1CC[C@@H]2OP(=O)(O)O; inactive
3) COc1cc2c(cc1OCCCN1CCN(C(=S)SCCC(C#N)(c3ccccc3)c3ccccc3)CC1)N=C[C@@H]1CCCN1C2=O; inactive

# next compound below
Data request: For this compound, state the assay outcome: Nc1n[nH]c2ccc([C@@H]3Nc4ccc5cn[nH]c5c4[C@H]4C5CCC(C5)[C@@H]34)cc12 (some centres undefined)
Data returned: inactive

====

system: UO-31 renal; assay: NCI tumour cell line growth inhibition, 48 h; in the data active means GI50 below about 0.43 µM; inactive means the rest
The reply should name one outcome from active, inactive

Here's what some known entries look like.
1. Fc1ccc(Nc2nc3nonc3nc2Nc2ccc(I)cc2)cc1; active
2. O=C(N/N=C/c1ccncc1)c1ccc(F)cc1; inactive
3. Cc1cc(C)c2c(c1)N(C)c1ncnc(-n3cnc4cc(C)ccc43)c1CC2C (stereo not given); inactive
4. CCCCOC(=O)c1c(C)[nH]c(/C=C2\N=C(c3ccc[nH]3)C=C2OC)c1C; active
5. COc1ccc(/C=C\c2cc(OC)c(OC)c(OC)c2)c(NS(=O)(=O)c2ccc(F)cc2)c1O; active
6. COC(=O)[C@]12CC[C@@H](C)[C@H](C)[C@@H]1C1=CC[C@@H]3[C@@](C)(CC#N)C4=C(C[C@@]3(C)[C@]1(C)CC2)OC[C@]4(C)C=O; inactive

Data request: For this compound, state the assay outcome: `COC(=O)Nc1nc2ccc(C(=O)c3ccc(F)cc3)cc2[nH]1`
Data returned: inactive

Data request: For this compound, state the assay outcome: `CC[C@@]1(O)C(=O)OCc2c1cc1n(c2=O)Cc2c-1nc1cc(F)c(C)c3c1c2[C@@H](NC(=O)CO)CC3`
Data returned: active

Data request: For this compound, state the assay outcome: `Cc1c(C(=O)c2ccccc2)[n+](=O)c2cc(F)c(F)cc2n1[O-]`
Data returned: inactive

Data request: For this compound, state the assay outcome: CCC(C)C1NC(=O)C(NC(=O)C(CC(C)C)N(C)C(=O)[C@@H]2CC(O)CN2C(=O)[C@H](C)O)C(C)OC(=O)[C@H](Cc2ccc(OC)cc2)N(C)C(=O)[C@@H]2CCCN2C(=O)[C@H](CC(C)C)NC(=O)C(C)C(=O)[C@H](C(C)C)OC(=O)CC1O (stereo not given in full)
Data returned: inactive

Data request: For this compound, state the assay outcome: CCN(CC)CC(O)c1cc(-c2ccc(Cl)cc2)nc2c(C)c(Cl)ccc12 (stereo not given)
Data returned: inactive

Data request: For this compound, state the assay outcome: `CN(C)CCCCNc1ccc(NCCCCN(C)C)c2c1C(=O)c1c(O)ccc(O)c1C2=O`
Data returned: inactive

Data request: For this compound, state the assay outcome: `C[C@]12CC[C@H]3[C@@H](CC[C@]4(O)C[C@@H](O[C@@H]5O[C@H](CO)[C@@H](O[C@@H]6OC[C@@H](O)[C@H](O)[C@H]6O)[C@H](O)[C@H]5O)CC[C@]34C=O)[C@@]1(O)CC[C@@H]2C1=CC(=O)OC1`
Data returned: inactive

Data request: For this compound, state the assay outcome: `COc1cc(N2CCC(N)CC2)ccc1Nc1ncc(Cl)c(-c2c[nH]c3ccccc23)n1`
Data returned: active

Data request: For this compound, state the assay outcome: `COc1c(B(O)O)cccc1-c1nc2c(F)cc3n[nH]c(C)c3c2c2c1CCCC2`
Data returned: active
